Form field: koff (one value per entry).
- test_target: T1, cynomolgus IL-36γ, truncated (cynomolgus macaque (Macaca fascicularis), UniProt Q9NZH8 18-167 (human entry), limits assumed)
- T1 construct: Untagged after removal of the His-SUMO tag; also called cynomolgus IL-36 gamma; cyIL-36gamma
- T1 chain: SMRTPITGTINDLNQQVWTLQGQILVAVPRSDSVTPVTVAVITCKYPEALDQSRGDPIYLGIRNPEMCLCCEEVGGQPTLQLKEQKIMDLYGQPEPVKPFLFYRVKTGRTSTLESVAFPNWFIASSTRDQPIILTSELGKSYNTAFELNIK
- test_protocol: SPR, Biacore, 1:1 Langmuir fit; heads of c3 and c4 printed swapped
Provide the reading as a plain figure in s⁻¹.

binder	observed
144L249B LV9 HV10b (antibody, V domains shown, Humanized) VH: QVQLVQSGAEVKKPGASVKVSCKASGFNIKDTYIYWVRQAPGQGLEWIGRIDPAIGTTRYDPKFQGKATLTTDTSTSTAYLELSSLRSEDTAVYYCARYDYSGSSFYFDYWGQGTLVTVSS VL: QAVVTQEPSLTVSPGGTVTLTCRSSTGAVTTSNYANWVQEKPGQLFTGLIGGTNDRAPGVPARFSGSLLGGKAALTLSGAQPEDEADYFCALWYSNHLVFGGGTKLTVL	0.000969

Ask: I'd like to know its koff. The binder in question is 144D464A LV7a HV10b (antibody, V domains shown, Humanized; also called humanized 144D464A antibody LV7a HV10b) VH: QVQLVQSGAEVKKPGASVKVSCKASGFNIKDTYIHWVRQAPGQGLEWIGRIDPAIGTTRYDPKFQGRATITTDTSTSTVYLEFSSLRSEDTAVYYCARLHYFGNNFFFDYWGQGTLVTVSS VL: QAVVTQEPSLTVSPGGTVTLTCRSSSGAVTTSNYANWVQQKPGQAFAGLIGGTNDRAPGVPARFSGSLLGGKAALTISGAQPEDEADYFCALWFSNHWVFGGGTKLTVL
Reply: 0.000523

Ask: Now try 144D464A LV10re HV10b (antibody, V domains shown, Humanized) VH: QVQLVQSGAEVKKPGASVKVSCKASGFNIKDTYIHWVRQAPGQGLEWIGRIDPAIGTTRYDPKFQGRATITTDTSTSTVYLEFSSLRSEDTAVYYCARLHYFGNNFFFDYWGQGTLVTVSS VL: QAVVTQEPSLTVSPGGTVTLTCRSSSGAVTTSNYANWVQEKPGQLFAGLIGGTNDRAPGVPARFSGSLLGGKAALTLSGAQPEDEAIYFCALWFSNHWVFGGGTKLTVL .
Reply: 0.00047

Ask: Let us now turn to 144D464A LV11re HV10b (antibody, V domains shown, Humanized) VH: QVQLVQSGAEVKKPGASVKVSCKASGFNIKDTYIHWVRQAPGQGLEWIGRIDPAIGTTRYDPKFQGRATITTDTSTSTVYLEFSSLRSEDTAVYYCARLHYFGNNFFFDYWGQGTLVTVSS VL: QAVVTQEPSLTVSPGGTVTLTCRSSSGAVTTSNYANWVQEKPGQLFAGLIGGTNDRAPGVPARFSGSLLGGKAALTISGAQPEDEAIYFCALWFSNHWVFGGGTKLTVL
Reply: 0.000463

Ask: Another binder to check: 144L249B LV7a HV11 (antibody, V domains shown, Humanized) VH: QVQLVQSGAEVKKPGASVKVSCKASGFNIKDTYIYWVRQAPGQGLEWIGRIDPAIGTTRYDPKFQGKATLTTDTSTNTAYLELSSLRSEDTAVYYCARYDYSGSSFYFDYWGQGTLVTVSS VL: QAVVTQEPSLTVSPGGTVTLTCRSSTGAVTTSNYANWVQQKPGQAFTGLIGGTNDRAPGVPARFSGSLLGGKAALTISGAQPEDEADYFCALWYSNHLVFGGGTKLTVL
Reply: 0.000831
